B1: library; numbered along this chain (parent)
chain: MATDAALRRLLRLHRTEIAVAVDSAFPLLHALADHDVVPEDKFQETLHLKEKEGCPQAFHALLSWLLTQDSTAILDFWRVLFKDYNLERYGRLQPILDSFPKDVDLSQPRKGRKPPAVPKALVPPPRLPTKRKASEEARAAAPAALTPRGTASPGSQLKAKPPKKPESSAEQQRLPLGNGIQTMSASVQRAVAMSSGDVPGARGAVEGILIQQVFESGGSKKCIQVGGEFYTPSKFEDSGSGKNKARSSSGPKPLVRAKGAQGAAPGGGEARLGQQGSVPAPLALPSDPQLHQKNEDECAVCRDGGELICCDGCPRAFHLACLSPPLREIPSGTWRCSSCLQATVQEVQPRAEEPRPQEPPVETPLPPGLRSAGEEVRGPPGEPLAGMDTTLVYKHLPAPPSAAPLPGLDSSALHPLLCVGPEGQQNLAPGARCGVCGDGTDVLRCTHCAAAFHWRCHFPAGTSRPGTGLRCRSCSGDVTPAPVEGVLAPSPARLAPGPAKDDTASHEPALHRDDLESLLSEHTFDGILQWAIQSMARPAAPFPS

# Variants of: B1
# test_method_notes: AIRE transcriptional activation functional score (insulin promoter-GFP; nonsense median 0, synonymous median 1) (normalised score); higher = higher AIRE activity (more reporter activation)
# test_conditions: with insulin promoter-GFP reporter in HEK293
Records here are stratified by AIRE transcriptional activation functional score; strata: c1 = under 0.6, c2 = from 0.6 up to 1, c3 = 1 and over

INPUT: Which of the defined bands does the recorded AIRE transcriptional activation functional score of "E237H" sit within?
OUTPUT: c2

INPUT: Which of the defined bands does the recorded AIRE transcriptional activation functional score of "P119I" sit within?
OUTPUT: c3

INPUT: Which of the defined bands does the recorded AIRE transcriptional activation functional score of "G408D" sit within?
OUTPUT: c3

INPUT: Which of the defined bands does the recorded AIRE transcriptional activation functional score of "G91A" sit within?
OUTPUT: c1

INPUT: Which of the defined bands does the recorded AIRE transcriptional activation functional score of "V188P" sit within?
OUTPUT: c2

INPUT: Which of the defined bands does the recorded AIRE transcriptional activation functional score of "A2V" sit within?
OUTPUT: c1

INPUT: Which of the defined bands does the recorded AIRE transcriptional activation functional score of "A461M" sit within?
OUTPUT: c3

INPUT: Which of the defined bands does the recorded AIRE transcriptional activation functional score of "S402E" sit within?
OUTPUT: c2

INPUT: Which of the defined bands does the recorded AIRE transcriptional activation functional score of "P400F" sit within?
OUTPUT: c2

INPUT: Which of the defined bands does the recorded AIRE transcriptional activation functional score of "Q342M" sit within?
OUTPUT: c3

INPUT: Which of the defined bands does the recorded AIRE transcriptional activation functional score of "D297S" sit within?
OUTPUT: c2

INPUT: Which of the defined bands does the recorded AIRE transcriptional activation functional score of "R79D" sit within?
OUTPUT: c1

INPUT: Which of the defined bands does the recorded AIRE transcriptional activation functional score of "I181H" sit within?
OUTPUT: c1

INPUT: Which of the defined bands does the recorded AIRE transcriptional activation functional score of "D198H" sit within?
OUTPUT: c2
